Data provenance: patent US20140322218A1

Molecular target: T1, huCDH19(44-772), Flag-tagged, on 293T cells (human, UniProt Q9H159 44-772)
T1 construct: Expressed with native leader (1-43) followed by a Flag tag; leader left out; also called Hu EC1-5
Assay: FACS, transfected 293T;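 also: antibody binding to chimera-expressing cells with 2 mM CaCl2 present, cell-bound Alexa647-labelled antibody read by flow cytometry, mock-transfected cells serving as control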
OUTCOME MEASURE: binding result

Reported binding result, binder anti-CDH19 antibody 2G6 (Ab ID 13588) (antibody, human IgG1, lambda, V domains shown) VH: QVQLVESGGGVVQPGRSLRLSCAASGFTFSSYGMHWVRQAPGKGLEWVAFIWYDGSNKYYADSVKDRFTISRDNSKNTLYLQMKSLRAEDTAVYYCARRAGIIGTIGYYYGMDVWGQGTTVTVSS VL: SYELTQPPSVSVSPGQTASITCSGDRLGEKYTCWYQQRPGQSPLLVIYQDTKRPSGIPERFSGSNSGNTATLTISGTQAMDEADYYCQAWDSSTVVFGGGTKLTVLG : ____
binds

Reported binding result, binder hu anti-<huCDH19> 4B10 VH::huIgG1z / 4B10 VL::huKLC (Ab ID 13590) (antibody, V domains shown) VH: QVQLVESGGGVVQPGRSLRLSCAASGFTFSSYDMHWVRQAPGKGLEWVAVISYDGTNEYYADSVKGRFTISRDTSKNTLYLQMNSLRAEDTAVYYCARERYFDWSFDYWGQGTLVSVSS VL: EIVLTQSPGTLSLSPGERATLSCRASQSVSNTYLAWYHQRPGQAPRLLIYGASSRATGIPDRFSGSGSGTDFALTISSLEPEDFAVYYCQQYSNSWTFGQGTKVEIKR : ____
binds

Reported binding result, binder hu anti-<huCDH19> 4A9 VH::huIgG1z / 4A9 VL::huLLC-C1 (Ab ID 13589) (antibody, V domains shown, Recombinant fully human IgG1) VH: QVQLQESGPGLVKPSETLSLTCTVSGGSISGYYWSWIRQPPGKGLEWFAYFSYSGSTNYNPSLKSRVTLSVDTSKNQFSLKLSSVTAADTAVYYCARNWAFHFDFWGQGTLVTVSS VL: QSVLTQPPSVSGAPGQRVTISCTGSSSNIGTGYAVHWYQQFPGTAPKLLIYGNNNRPSGVPDRFSGSKSGTSASLAITGLQAEDEADYYCQSYDSRLSGWVFGGGTKLTVLG : ____
binds
